For each of the molecules below, state its IC50.
Biological target: human PTGES (Homo sapiens (Human), UniProt O14684)
Sequence (O14684 whole entry): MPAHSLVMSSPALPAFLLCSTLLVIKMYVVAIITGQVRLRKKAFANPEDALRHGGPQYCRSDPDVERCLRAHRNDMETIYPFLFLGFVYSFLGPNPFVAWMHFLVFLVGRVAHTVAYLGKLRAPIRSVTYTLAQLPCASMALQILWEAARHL
Experiment: Human PTGES biochemical enzyme inhibition assay (conversion of PGH2 to PGE2, TR-FRET)
Settings: Enzymatic conversion of PGH2 to PGE2; read-out: Human PTGES IC50
Dear colleague, please send the value followed by its unit.

Ask: Item under review: Cc1ncc(-c2ccc(C(C(=O)Nc3cc(F)cc(CCC(=O)O)c3C)C3CCCC3)cc2)cc1Cl (racemic) [Example 169] . Reported IC50?
Result: 0.254 µM

Ask: Need IC50 of Cc1c(NC(=O)C(c2ccc(-c3cncc(Cl)c3)c(F)c2)C2CCCC2)cccc1C(C)CC(=O)O (single isomer, unassigned; stereoisomer 1) [Example 126] , thanks.
Result: 0.646 µM

Ask: Reported IC50 for CCOc1cncc(-c2ccc(C(C(=O)Nc3cc(F)cc(CCC(=O)O)c3C)C3CCCC3)cc2)c1 (racemic) [Example 170] : what is it?
Result: 0.573 µM

Ask: Query: IC50; subject: COc1c(CCC(=O)O)cccc1NC(=O)C(c1ccc(-c2cncc(C(F)(F)F)c2)cc1)C1CCCC1 (stereo not drawn) [Example 213]
Result: 0.328 µM

Ask: Reported IC50, molecule Cc1c(CCC(=O)O)cccc1NC(=O)C(c1ccc(-c2cncc(CC(F)(F)F)c2)c(F)c1)C1CCC1 (single isomer, unassigned) [Example 205] : ____
Result: 0.0664 µM

Ask: Which IC50 is reported for this molecule? Cc1ncc(-c2ccc(C(C(=O)Nc3cccc(C(C)CC(=O)O)c3C)C3CCCC3)cc2F)cc1Cl (single isomer, unassigned; stereoisomer 1) [Example 121]
Result: 0.382 µM

---

Biological target: human PTGES (Homo sapiens (Human))
Test: Human PTGES biochemical enzyme inhibition assay (conversion of PGH2 to PGE2, TR-FRET)
Details: Enzymatic conversion of PGH2 to PGE2; read-out: Human PTGES IC50
propertyLabel: pIC50
Scale note: pIC50 = -log10(concentration in M).

Ask: Look at this compound and give its reported pIC50. Cc1ncc(-c2ccc(C(C(=O)Nc3cccc(CCC(=O)O)c3C)C3CCC3)cc2)cc1F (racemic) [Example 62]
Result: 6.83

Ask: Which pIC50 value belongs to Cc1c(NC(=O)C(c2ccc(-c3cncc(Cl)c3)c(F)c2)C2CCC2)cccc1C(C)CC(=O)O (single isomer, unassigned; stereoisomer 4) [Example 153] ?
Result: 7.93

Ask: Which pIC50 value belongs to Cc1c(CCC(=O)O)cccc1NC(=O)C(c1ccc(-c2cncc(OC3CCOCC3)c2)cc1)C1CCCC1 (racemic) [Example 15] ?
Result: 6.94

---

Target: human PTGES (Homo sapiens (Human), UniProt O14684)
Experiment: Human PTGES biochemical enzyme inhibition assay (conversion of PGH2 to PGE2, TR-FRET)
Details: Enzymatic conversion of PGH2 to PGE2; read-out: Human PTGES IC50
propertyLabel: pIC50
Value format note: pIC50 is -log10 of concentration (mol/L); just state the number.

Ask: What value of measured pIC50 is listed for Cc1cncc(-c2ccc(C(C(=O)Nc3cccc(CC(C)C(=O)O)c3C)C3CCCC3)cc2)c1 (stereo not shown) ?
Result: 6.76

Ask: What does the data say about its pIC50? Entry: CCOc1cncc(-c2ccc(C(C(=O)Nc3cccc(C4CC4C(=O)O)c3C)C3CCCC3)cc2)c1 (stereo not shown)
Result: 6.80

Ask: pIC50 for CCC(CC(=O)O)c1cccc(NC(=O)[C@@H](c2ccc(-c3cncc(CC(F)(F)F)c3)cc2)C2CCCC2)c1C (single isomer, unassigned) ?
Result: 7.75

Ask: Record request: pIC50 value, item CCOc1cncc(-c2ccc(C(C(=O)Nc3cccc(CCC(=O)O)c3C)C3CCC3)cc2)c1 (racemic)
Result: 6.68

Ask: Quick check: pIC50 of Cc1c(NC(=O)C(c2ccc(-c3cncc(C(F)(F)F)c3)c(F)c2)C2CCC2)cccc1C(C)CC(=O)O (single isomer, unassigned; stereoisomer 1) [Example 147] ?
Result: 5.88

Ask: So what's the measured pIC50 for this one? Cc1c(NC(=O)C(c2ccc(-c3cncc(C(F)(F)F)c3)cc2)C2CCCC2)cccc1OCC(=O)O (single isomer, unassigned; (+)) [Example 35]
Result: 5.43

Ask: Look up pIC50 for this compound: Cc1c(CC(C)C(=O)O)cccc1NC(=O)C(c1ccc(-c2cncc(C(F)(F)F)c2)cc1)C1CCCC1 (single isomer, unassigned; stereoisomer 3) [Example 71]
Result: 4.80

Ask: Given Cc1c(CCC(=O)O)cccc1NC(=O)C(c1ccc(-c2cncc(C3CC3)c2)cc1)C1CCCC1 (racemic) , state its recorded pIC50.
Result: 6.94

Ask: What value of pIC50 has been recorded for this entry: Cc1ncc(-c2ccc(C(C(=O)Nc3cccc(C(C)CC(=O)O)c3C)C3CCCC3)cc2F)cc1Cl (mixture of isomers) [Example 120]
Result: 7.80

Ask: Would you mind telling me what pIC50 value was observed for Cc1c(NCC(=O)O)cccc1NC(=O)C(c1ccc(-c2cncc(C(F)(F)F)c2)cc1)C1CCCC1 (racemic) ?
Result: 6.50

Ask: Given the compound Cc1c(CCC(=O)O)cccc1NC(=O)C(c1ccc(-c2cncc(CC(C)C)c2)c(F)c1)C1CCC1 (single isomer, unassigned) , what is its reported pIC50?
Result: 7.85

Ask: // pIC50 lookup, key: Cc1c(CCC(=O)O)cccc1NC(=O)C(c1ccc(-c2cncc(C(F)(F)F)c2)c(F)c1)C1CCCC1 (racemic) [Example 47]
Result: 7.80

Ask: What does the data say about its pIC50? Entry: Cc1c(CCC(=O)O)cccc1NC(=O)C(c1ccc(-c2cncc(C(F)(F)F)c2)cc1Cl)C1CCCC1 (racemic)
Result: 6.56

---

Test: Unbound plasma concentration in human KI mice of the CFA model
Type: in vivo
Settings: female, human PTGES knock-in (humanized KI, transgenic) mice, mouse, plasma, oral, 10 mg/kg; read-out: Plasma concentration Cplasma-unbound
Provide the recorded concentration at 1 h for the entries that follow.
// units = nM; emit number, no label

Ask: Query: concentration at 1 h; subject: Cc1c(CCC(=O)O)cccc1NC(=O)C(c1ccc(-c2cncc(Cl)c2)c(F)c1)C1CCCC1 (single isomer, unassigned; (-))
Result: 173

Ask: Given Cc1c(NC(=O)C(c2ccc(-c3cncc(Cl)c3)cc2)C2CCCC2)cccc1C(C)CC(=O)O (single isomer, unassigned; stereoisomer 2) , state its recorded concentration at 1 h.
Result: 172

Ask: Consider the molecule shown here: `Cc1c(CCC(=O)O)cccc1NC(=O)[C@@H](c1ccc(-c2cncc(C(F)(F)F)c2)cc1)C1CCCC1` What is its recorded concentration at 1 h?
Result: 190

Ask: Query (molecule): `Cc1c(CCC(=O)O)cccc1NC(=O)[C@@H](c1ccc(-c2cncc(Cl)c2)cc1)C1CCCC1` ; field requested: concentration at 1 h
Result: 380

---

Exercise: state measured pIC50 for each of the compounds provided.
Biological target: human PTGES (Homo sapiens (Human))
Assay: Human PTGES biochemical enzyme inhibition assay (conversion of PGH2 to PGE2, TR-FRET)
Conditions: Enzymatic conversion of PGH2 to PGE2; read-out: Human PTGES IC50
Give only the number. pIC50 is defined as minus log10 of concentration in molar units.

Ask: Data request, read-out pIC50, for Cc1c(CCC(=O)O)cccc1NC(=O)[C@@H](c1ccc(-c2cncc(Cl)c2)cc1)C1CCCC1 [Example 17]
Result: 7.45

Ask: Report pIC50 for Cc1c(CCC(=O)O)cccc1NC(=O)C(c1ccc(-c2cncc(C(F)(F)F)c2)cc1)C1CCC1 (single isomer, unassigned; (-)) [Example 55] please.
Result: 7.45

Ask: Requested field: pIC50. Item: Cc1cc(-c2ccc(C(C(=O)Nc3cccc(CCC(=O)O)c3C)C3CCC3)cc2)cnc1C (racemic) [Example 59]
Result: 6.71

Ask: Dear colleague, I am looking for the recorded pIC50 of the following compound: Cc1c(CCC(=O)O)cccc1NC(=O)C(c1ccc(-c2cncc(C(F)F)c2)cc1)C1CCCC1 (racemic) [Example 29]
Result: 7.11

Ask: Which value of pIC50 has been reported for Cc1c(CCC(=O)O)cccc1NC(=O)C(c1ccc(-c2cncc(OC(F)F)c2)cc1)C1CCC1 (racemic) [Example 63] in the records?
Result: 6.99

Ask: Quick one: pIC50 for Cc1c(CCC(=O)O)cccc1NC(=O)C(c1ccc(-c2cncc(Cl)c2)cc1)C1CCCC1 (racemic) [Example 16] ?
Result: 7.22

Ask: Recorded pIC50 for Cc1c(NC(=O)C(c2ccc(-c3cncc(C(F)(F)F)c3)c(F)c2)C2CCCC2)cccc1N(C)CC(=O)O (single isomer, unassigned; (-)) [Example 188] , please?
Result: 7.62

Ask: Quick one: pIC50 for Cc1c(CCC(=O)O)cccc1NC(=O)C(c1ccc(-c2cncc(CF)c2)cc1)C1CCCC1 (racemic) [Example 30] ?
Result: 6.73

Ask: Entry under review: COc1ccc(NC(=O)C(c2ccc(-c3cncc(C(F)(F)F)c3)cc2)C2CCCC2)c(C)c1CCC(=O)O (racemic) [Example 40] . Reported pIC50?
Result: 7.55

Ask: Fill in the blank: the reported pIC50 of Cc1cc(-c2ccc(C(C(=O)Nc3cccc(CCC(=O)O)c3C)C3CCCC3)cc2)cnc1C (racemic) [Example 27] is ____.
Result: 7.04

Ask: Which pIC50 value belongs to Cc1c(NC(=O)C(c2ccc(-c3cncc(Cl)c3)c(F)c2)C2CCCC2)cccc1C(C)CC(=O)O (mixture of isomers) [Example 125] ?
Result: 7.64

Ask: Would you kindly share the measured pIC50 for CCc1cncc(-c2ccc(C(C(=O)Nc3cccc(C(CC)CC(=O)O)c3C)C3CCCC3)cc2F)c1 (single isomer, unassigned) [Example 195] ?
Result: 7.98

Ask: Name the recorded pIC50 for Cc1c(CCC(=O)O)cccc1NC(=O)C(c1ccc(-c2cncc(C(F)(F)F)c2)c(F)c1)C1CCCC1 (single isomer, unassigned; (+)) [Example 49] .
Result: 6.28

Ask: Sample Cc1c(NC(=O)C(c2ccc(-c3cncc(Cl)c3)cc2)C2CCC2)cccc1C(C)CC(=O)O (mixture of isomers) [Example 135] — what was its pIC50?
Result: 7.06

Ask: Which pIC50 is listed for Cc1c(NC(=O)C(c2ccc(-c3cncc(F)c3)cc2)C2CCCC2)cccc1C(CC(=O)O)C1CC1 (mixture of isomers) [Example 112] ?
Result: 7.28

Ask: Field request: pIC50 | item: Cc1c(NC(=O)[C@@H](c2ccc(-c3cncc(Cl)c3)cc2)C2CCCC2)cccc1C(O)CC(=O)O (stereo partly shown) [Example 193]
Result: 6.63

Ask: What does the data say about its pIC50? Entry: Cc1c(CCC(=O)O)cccc1NC(=O)C(c1ccc(-c2cncc(C(F)(F)F)c2)cc1F)C1CCCC1 (racemic) [Example 53]
Result: 7.27

Ask: Would you kindly share the measured pIC50 for Cc1c(CCC(=O)O)cccc1NC(=O)C(c1ccc(-c2cncc(C(F)(F)F)c2)c(F)c1)C1CCCC1 (single isomer, unassigned; (-)) [Example 48] ?
Result: 7.85

Ask: Form field: reported pIC50 of CCC(CC(=O)O)c1cccc(NC(=O)C(c2ccc(-c3cnc(C)c(C(F)(F)F)c3)c(F)c2)C2CCCC2)c1C (single isomer, unassigned) [Example 201]
Result: 8.18

Ask: Entry under review: Cc1ncc(-c2ccc(C(C(=O)Nc3cccc(C(C)CC(=O)O)c3C)C3CCCC3)cc2F)cc1Cl (single isomer, unassigned; stereoisomer 4) [Example 124] . Reported pIC50?
Result: 8.30

Ask: pIC50 lookup needed for Cc1cc(C(C(=O)Nc2cccc(CCC(=O)O)c2C)C2CCCC2)c(Cl)cc1-c1cncc(Cl)c1 (racemic) [Example 172] , thanks.
Result: 5.73

Ask: Which value of pIC50 has been reported for Cc1ncc(-c2ccc(C(C(=O)Nc3cccc(C(C)CC(=O)O)c3C)C3CCCC3)cc2)cc1Cl (mixture of isomers) [Example 97] in the records?
Result: 7.89
